- Test system: KM12 colon
- TEST PROTOCOL: NCI-60 one-dose screen, 48 h (100 = growth as untreated, 0 = no growth, -100 = all killed)
- EXPERIMENTAL SETUP: 10 µM
This is part of a sample that, as a whole, favours compounds with a hit. Of some 83,000 tested, about 20% had one in any assay.
Records here are stratified by growth; strata: category 1 = under 20%, category 2 = from 20% up to 80%, category 3 = 80% and over

CCN(CC)c1ccc(/C=C2\SC(=O)C(Nc3nnc(-c4cccnc4SCc4ccccc4)o3)C2=O)cc1 (centres undefined) :: category 1
CC(C)C[C@H](NC(=O)Cn1cccc(CNC(=O)c2ccccc2)c1=O)B(O)O :: category 1
Cc1c(O)c(=O)ccn1C1CCC(CC2CCC(n3ccc(=O)c(O)c3C)CC2)CC1 (centres undefined) :: category 2
COc1ccc(-c2n[nH]nc2-c2cc(OC)c3c(c2OC)OCO3)cc1 :: category 2
COc1ccc2c(c1)C(CC(=O)NN)CCC2 (centres undefined) :: category 3
O=C1/C=C/[C@@H](O)[C@@H]2C[C@@H](O)C[C@H]2/C=C/CCC[C@@H](C(F)(F)F)O1 :: category 3
CC(C)(C)c1ccc(S(=O)(=O)N[C@H]2CC[C@H]3[C@@H]4CCc5cc(O)c([N+](=O)[O-])cc5[C@H]4CC[C@]23C)cc1 :: category 2
CCN(CC)CCNc1ccc(C)c2sc3cc(Cl)ccc3c(=O)c12 :: category 2
CSc1ccc(-c2cc(-c3ccc(NC(=O)CCCN4CCCC4)cc3)nc(-c3ccc(NC(=O)CCCN4CCCC4)cc3)c2)cc1 :: category 2

* * *

- System: NCI/ADR-RES ovarian
- TEST PROTOCOL: NCI-60 one-dose screen, 48 h
- EXPERIMENTAL SETUP: 10 µM
The panel holds about 83,000 compounds, 20% with a hit somewhere; the sample as a whole holds those more often. Calls of active or inactive are those of the source. How the source made its calls: active means growth percent below 10; inactive means the rest.
Classes used: 1 = active, -1 = inactive

S=c1cnc2ccccc2[nH]1 :: -1
NS(=O)(=O)Oc1ccc2c(ccn2C(=O)C23CC4CC(CC(C4)C2)C3)c1 :: -1
Cc1c2cnccc2c(C)c2c1oc1ccccc12 :: -1
CCn1cc(C(=O)O)c(=O)c2cc(F)c(N3CCNCC3)cc21 :: -1
CN(C)CCOc1cccc(-c2nc3sccn3c2-c2ccnc(S(C)(=O)=O)n2)c1 :: -1
COc1cc(NC(=O)Nc2cnc(Nc3ccc(N4CCOCC4)cc3)nc2Oc2cccc(OC)c2)cc(OC)c1 :: -1
CC(=O)COc1ccc(Cl)cc1Cl :: -1
CCN(CCCNc1cc2c(c(N)c1S(=O)(=O)O)C(=O)c1ccccc1C2=O)c1ccccc1 :: -1
C=C(C)[C@@H]1CC[C@]2(COCCC#N)CC[C@]3(C)[C@H](CC[C@@H]4[C@@]5(C)Cc6c([nH]c7ccccc67)C(C)(C)[C@@H]5CC[C@]43C)[C@@H]12 :: -1
CN1CCN(c2cc3c(cc2F)c(=O)c(C(=O)O)cn3-c2ccc(F)cc2)CC1 :: -1
CCOC(=O)C1=CSC2=NC3=C(CCC/C3=C\c3cc(OC)c(OC)c(OC)c3)C(c3cc(OC)c(OC)c(OC)c3)N12 (stereo not given) :: 1
CCOC(=O)c1cc(C(=O)c2ccc(Cl)cc2)n2ccc(-c3cc[n+](CC(=O)c4ccc(OC)cc4)cc3)cc12 :: -1
COC(=O)C1(O)NC(=C(C#N)C#N)C(C#N)=C1C(=O)c1ccc(OC)c(OC)c1 (stereo not given) :: -1
CCCc1nc(C(C)(C)O)c(C(=O)O)n1Cc1ccc(-c2ccccc2-c2nn[nH]n2)cc1 :: -1
COc1ccc(C(=O)c2cc3c(OC)c(OC)c(OC)cc3[nH]2)cc1 :: -1
C[n+]1c2ccccc2nc2ccccc21 :: 1
C=CCN(CC=C)C(=O)[C@H](CC)[C@@H]1CC[C@@H](C)[C@@H]([C@H](C)[C@@H](O)[C@@H](C)C(=O)[C@H](CC)C2O[C@]3(C=C[C@@H](O)[C@]4(CC[C@@](C)([C@H]5CC[C@](O)(CC)[C@H](C)O5)O4)O3)[C@H](C)C[C@@H]2C)O1 (stereo not given in full) :: 1
CCOC(=O)c1cc(C(=O)c2cc(OC)c(OC)c(OC)c2)n2ccc(-c3cc[n+](CC(=O)c4cc(OC)c(OC)c(OC)c4)cc3)cc12 :: -1
Cc1ccc(C(SCC(N)C(=O)O)(c2ccc(C)cc2)c2ccc(C)cc2)cc1 (stereo not given) :: -1
CCOC(=O)Cn1c(=O)c2sc3ncccc3c2n2nnc(-c3ccccc3)c12 :: -1
CC[C@@H](C(=O)[C@H](C)[C@H](O)[C@@H](C)[C@H]1O[C@H]([C@@H](CC)C(=O)N(CC)CC)CC[C@H]1C)C1O[C@]2(C=C[C@@H](O)[C@]3(CC[C@@](C)([C@H]4CC[C@](O)(CC)[C@H](C)O4)O3)O2)[C@H](C)C[C@@H]1C (stereo not given in full) :: 1
CCOC(=O)C1C(C(=O)OCC)C2C(=O)C3C(C(=O)OCC)C(C(=O)OCC)C3C(=O)C12 (stereo not given) :: -1
COc1cc2c(cc1OC)C(C(CCCCCC(CCC(C)C)C1NCCc3cc(OC)c(OC)cc31)CCC(C)C)NCC2 (stereo not given) :: 1
O=C1c2c(c(=O)[nH]c3ccccc23)CCN1Cc1ccccc1 :: -1
NS(=O)(=O)Oc1ccc(NC(=O)C2CCCCCC2)cc1 :: -1
COc1cc2cc(Oc3ccc(NC(=O)Nc4ccc(C(F)(F)F)cc4)cc3)c(C)nc2cc1OC :: -1
COc1cc(-c2nn(-c3cccc(NC(=O)CCN4CCN(c5ccccc5)CC4)c3)cc2-c2ccncc2)ccc1Cl :: -1
C=CCSC(CC)(CC)C(=O)NC :: -1
COc1cc2c(cc1NC(=O)C(F)(F)F)-c1ccc(NC(=O)C(F)(F)F)cc1C2 :: -1
O=C(O)COc1c(Cl)cc([N+](=O)[O-])cc1Cl :: -1
C[C@@H](C[C@H](CCO)c1ccccc1)c1ccc2ccccc2c1 :: 1
COc1ccc(-c2cc(-c3ccc(Cl)cc3)nc(SCCCC(=O)NO)n2)cc1 :: 1
Cc1nn(-c2ccccc2)c2nc(Cl)c(C=O)c(-c3ccccc3)c12 :: -1
Cc1cc(=O)n2nnc3cc(C(F)(F)F)ccc3n12 :: -1
CC[C@@H](C(=O)[C@@H](C)[C@@H](O)[C@H](C)[C@@H]1O[C@@H]([C@@H](CC)C(=O)O)CC[C@@H]1C)C1O[C@]2(C=CC(=O)[C@]3(CC[C@@](C)([C@H]4CC[C@](O)(CC)[C@H](C)O4)O3)O2)[C@H](C)C[C@@H]1C (stereo not given in full) :: -1
